Collected folding enthalpy values appear next to each entry.
Experiment: folding enthalpy; higher = less favourable; fluorescence melt of hairpins on a sequencing array, two-state fit
Settings: sodium 0.088 M
Report the figure in kcal/mol without appending any unit label.

>>> recorded_number("GTAACAGGAAACTGTCAC ((.((((....)))).))")
-15.5
>>> recorded_number("GGGACATCGAAAGATCCC (((..(((....))))))")
-18.5

Switching to the query record.
What does the record list as folding enthalpy for GCACTGACGAAAGTCTGC (((..(((....)))))) ?
-14.3

###

Documented folding enthalpy across a set of sequences
Experiment: folding enthalpy; higher = less favourable; fluorescence melt of hairpins on a sequencing array, two-state fit
Conditions: sodium 0.088 M
Record the value in kcal/mol, omitting the unit from your answer.

Recorded results for 10 sequences are shown here.
>>> recorded_number("GATGGGACGAAAGTCATC (((..(((....))))))")
-15.4
>>> recorded_number("GTGTGAGGAAACTCACAC (((((((....)))))))")
-49.1
>>> recorded_number("GCAAACGAAAGTTACTGC ((((((....)))..)))")
-13.3
>>> recorded_number("CGCGGATGATTCCGCG ((((((....))))))")
-31.2
>>> recorded_number("GGCTATCCGAAAGGAGCC (((..(((....))))))")
-27.3
>>> recorded_number("GCATGGCGAAAGCCCCGC ((..(((....)))..))")
-12.4
>>> recorded_number("GCGTCGTCACGC ((((....))))")
-22.4
>>> recorded_number("GATCGCTATCGCGATC ((((((....))))))")
-36.9
>>> recorded_number("GCAGGCGAAAGCCCCTGC ((((((....)))..)))")
-15.9
>>> recorded_number("GGGGAACGAAAGTTTCCC (((.(((....))).)))")
-36.8

What does the data say about its folding enthalpy? Entry: GTTCGCGGAAACGTGAGC (.((.((....)).)).)
-22.4

Please answer likewise for GTCACCGAAAGGTAAGAC ((((((....)))..)))
-19.6

Let us now turn to GCTTTCGAAAGAATAGC ((((((....))).)))
-23.9

###

Assay: melting temperature; fluorescence melt of hairpins on a sequencing array, two-state fit, raised by 9.35 °C to match UV melts
Conditions: sodium 0.088 M
metric name: Tm

>>> result("GGTGTCGAAAGACCTACC ((((((....)))..)))")
"33.8 °C"
>>> result("GATCGCTATCGCGATC ((((((....))))))")
"67.1 °C"
>>> result("GCAAGCGGAAACGCTTAC (.(((((....))))).)")
"41.2 °C"

Continue with the sequence presented below.
Sample GATCGAAGAATCGATC ((((((....)))))) — what was its Tm?
47.1 °C

###

Experiment: folding enthalpy; higher = less favourable; fluorescence melt of hairpins on a sequencing array, two-state fit
Settings: sodium 0.088 M
metric name: folding enthalpy (kcal/mol)
Give a bare numeral; the unit kcal/mol is implied.

>>> recorded_number("GCAACGGAAACGTTGC ((((((....))))))")
-32.6

folding enthalpy lookup needed for CGATCGGAAACGAACTCG ((((((....)))..))) , thanks.
-9.8

Next: GAAGGCGGAAACGTCTTC ((((.((....)).))))
-45.1

Same read-out for GTGACAGGAAACTGTCAC (((((((....))))))) ?
-42.1

Then this sequence: GTGGTCGGAAACAACCAC (((((.(....).)))))
-29.4

Next up: GACCTCGGAAACGAGGCC (.(((((....))))).)
-13

Can you check GCGGTACTCCGC ((((....)))) next?
-23.3

Now consider GCCGTGGGAAACCGTGGC (((..((....))..))) and answer again.
-28.2

Again, but for GCGTAATTACGC ((((....))))
-30

Next record, please: GCTGCGCGAAAGCACGGC ((.(.((....)).).))
-26.6

Would you mind doing GACTACGAAAGTAGTC ((((((....)))))) as well?
-28.4

Same for GCGAAAGGTCGC ((((....))))
-14.1

###

Assay: folding enthalpy; higher = less favourable; fluorescence melt of hairpins on a sequencing array, two-state fit
Conditions: sodium 0.088 M
Classification scheme (folding enthalpy): c1 (below -40 kcal/mol), c2 (-40 kcal/mol to below -20 kcal/mol), c3 (-20 kcal/mol or more)

>>> label_value("GATGCGGGAAACTGCGTC ((.((.(....).)).))")
"c2"
>>> label_value("GATGGAGGAAACCCCATC (((((.(....).)))))")
"c2"
>>> label_value("GCCGTACGAAAGTATGGC (((.(((....))).)))")
"c1"
>>> label_value("GCCTGCGGAAACGTAGGC ((((.((....)).))))")
"c2"
>>> label_value("GGCTGCGAAAGCATCGCC ((((((....)))..)))")
"c2"

Lab note: sort GCCCATGGAAACATGAGC ((.((((....)))).)) into the matching folding enthalpy band.
c2

Thanks! And GCAGGGCGAAAGCCAAGC ((..(((....)))..)) ?
c3

Entry GCGGAGCACCGC ((((....)))) please
c3

Do the same for GGAGTCGGAAACAACTCC (((((.(....).))))) please
c2

###

Test: folding enthalpy; higher = less favourable; fluorescence melt of hairpins on a sequencing array, two-state fit
Settings: sodium 0.088 M
Here the recorded folding enthalpy is given for each entry.
Response body: numeric value in kcal/mol, unit text excluded.

>>> recorded_number("GATCCTAGCAAGGATC ((((((....))))))")
-33.2

Please give the measured folding enthalpy for this sequence: GATCCACGCATGGATC ((((((....))))))
-32.1

GGCGTCCGAAAGGAGGCC (((.(((....))).))) , same question.
-27

Field entry: GATCCAGCGCTGGATC ((((((....))))))
-54.5

Follow-up entry: GCTGTGCGAAAGCAAAGC (((.(((....))).)))
-42.2

Request: GTGTAGCCGAAAGGCCAC (((..(((....))))))
-17.3

###

Assay: melting temperature; fluorescence melt of hairpins on a sequencing array, two-state fit, raised by 9.35 °C to match UV melts
Settings: sodium 0.088 M
metric name: Tm
Please give the number followed by its unit.

Entry under review: GCGTAAGGAAACTTGCGC (((.(((....))).))) . Reported Tm?
54.6 °C

What do you get for GATGTGGGAAACCACACC (.(((((....))))).) ?
39 °C

For GATCGTCGACACGATC ((((((....)))))) then?
52.2 °C

###

Assay: folding enthalpy; higher = less favourable; fluorescence melt of hairpins on a sequencing array, two-state fit
Settings: sodium 0.088 M
metric name: folding enthalpy (kcal/mol)
Report only the number, with the unit kcal/mol understood.

Consider the following illustrative entries.
>>> recorded_number("GCTATGAAAATAGC (((((....)))))")
-23.4
>>> recorded_number("CAGTAGAAATACTG (((((....)))))")
-15.3
>>> recorded_number("GAATCAGGAAACTGGTTC (((.(((....))).)))")
-31.2
>>> recorded_number("GCTATGACGAAAGTCAGC (((..(((....))))))")
-13.2
>>> recorded_number("CGTCACGGAAACGTCACG (((.(((....))).)))")
-19.8
>>> recorded_number("GAGCGCACGAAAGTGCTC (((..(((....))))))")
-8.27
>>> recorded_number("GCAATGCGAAAGCATAGC ((.((((....)))).))")
-18.6
>>> recorded_number("GTCGTGCGAAAGCAGAC (((.(((....))))))")
-21.2
>>> recorded_number("GATCGGATACCGATC ((((((...))))))")
-36.4
>>> recorded_number("GATAACGGAAACGTTATC (((((((....)))))))")
-47.8

Give its folding enthalpy value. Item: GTAAGCGAAAGCTATAC ((((((....))).)))
-14.9

###

Test: melting temperature; fluorescence melt of hairpins on a sequencing array, two-state fit, raised by 9.35 °C to match UV melts
Conditions: sodium 0.088 M
metric name: Tm

Look at this sequence and give its reported Tm. GGTCACGAAAGTGAACC ((((((....))).)))
55.6 °C

Repeat with GGGTATGGAAACATGCTC (.(.(((....))).).)
33.4 °C
